Tested on: Abutilon theophrasti (ABUTH)
Test: B3 Post-Emergence Efficacy—Test 3
Type: in vivo
Conditions: post-emergence application, 250 g/ha, evaluated after 13 days (Test 3)
Could you please report measured percentage damage caused to the plant, five point scale, ABUTH for the items listed next?

Example results:
[
  {
    "MOLECULE": "Cc1nn(C)c(=O)c(-c2c(F)ccc(Cl)c2CCc2ccc(S(N)(=O)=O)cc2)c1O [Compound A-1.391]",
    "TARGET": "Abutilon theophrasti (ABUTH)",
    "RESULT": "2 (2=20-39%)"
  },
  {
    "MOLECULE": "Cc1nn(C)c(=O)c(-c2c(F)ccc(C3CC3)c2CCc2ccnc(F)c2)c1O [Compound C-1.013]",
    "TARGET": "Abutilon theophrasti (ABUTH)",
    "RESULT": "4 (4=60-79%)"
  }
]

The value of percentage damage caused to the plant, five point scale, ABUTH measured for the molecule Cc1nn(C)c(=O)c(-c2c(F)ccc(Cl)c2CCc2ccc(C3CCC(C)O3)cc2)c1O (stereo not drawn) [Compound A-1.380] turned out to be 3 (3=40-59%)

----------
Test system: Abutilon theophrasti (ABUTH)
Assay: B3 Post-Emergence Efficacy—Test 3
Assay type: in vivo
Conditions: post-emergence application, 250 g/ha, evaluated after 13 days (Test 3)
ASSAY ENDPOINT: percentage damage caused to the plant, five point scale, ABUTH

[
  {
    "SMILES REPR": "CNS(=O)(=O)c1ccc(CCc2c(Cl)ccc(F)c2-c2c(O)c(C)nn(C)c2=O)cc1",
    "RESULT": "4 (4=60-79%)"
  },
  {
    "SMILES REPR": "Cc1nn(C)c(=O)c(-c2c(F)ccc(Cl)c2CCc2ccc(CSC(C)C)cc2)c1O",
    "RESULT": "4 (4=60-79%)"
  },
  {
    "SMILES REPR": "Cc1nn(C)c(=O)c(-c2c(F)ccc(Cl)c2CCc2cnn(-c3ccccc3)c2)c1O",
    "RESULT": "3 (3=40-59%)"
  }
]

For each of the compounds below, note its percentage damage caused to the plant, five point scale, ABUTH.
1. Cc1nn(C)c(=O)c(-c2c(F)ccc(Cl)c2CCc2ccc(C(N)=O)cc2)c1O
2. Cc1nn(C)c(=O)c(-c2c(F)ccc(Cl)c2CCc2ccc(-c3ncco3)cc2)c1O
3. Cc1ccc(-c2ccc(CCc3c(Cl)ccc(F)c3-c3c(O)c(C)nn(C)c3=O)cc2)o1

Key:
1. 4 (4=60-79%)
2. 4 (4=60-79%)
3. 3 (3=40-59%)

Parameter requested: percentage damage caused to the plant, five point scale, ABUTH. Apply to each item below.
1. CSCc1ccc(CCc2c(Cl)ccc(F)c2-c2c(O)c(C)nn(C)c2=O)cc1
2. Cc1nn(C)c(=O)c(-c2c(F)ccc(Cl)c2CCc2cnn(C3CC3)c2)c1O

Key:
["5 (5=80-100%)", "4 (4=60-79%)"]

----------
Tested on: Setaria faberi (SETFA)
Experiment: B6 Pre-Emergence Efficacy—Test 3
Type: in vivo
Settings: pre-emergence application, 250 g/ha, evaluated after 13 days (Test 3)
Kindly state percentage damage caused to the plant, five point scale, SETFA for each of the entries shown.

A selection of reference data follows.
[
  {
    "COMPOUND": "Cc1nn(C)c(=O)c(-c2c(F)ccc(Cl)c2CCc2ccc(C3CCC(C)O3)cc2)c1O (stereo not shown) [Compound A-1.380]",
    "RESULT": "1 (1=0-19%)"
  },
  {
    "COMPOUND": "CNS(=O)(=O)c1ccc(CCc2c(Cl)ccc(F)c2-c2c(O)c(C)nn(C)c2=O)cc1 [Compound A-1.390]",
    "RESULT": "5 (5=80-100%)"
  },
  {
    "COMPOUND": "Cc1nn(C)c(=O)c(-c2c(F)ccc(Cl)c2CCc2cnn(-c3ccccc3)c2)c1O [Compound A-1.386]",
    "RESULT": "5 (5=80-100%)"
  }
]

Form: compound = CSCc1ccc(CCc2c(Cl)ccc(F)c2-c2c(O)c(C)nn(C)c2=O)cc1 [Compound A-1.388] ; percentage damage caused to the plant, five point scale, SETFA = 5 (5=80-100%)
